System: P388
experimental.protocol: Antitumor activity against mouse P388 cells allografted in DBA/2 mouse assessed as survival rate at 25 mg/kg relative to control
Type: functional
measure.name: T/C (%)

>>> numeric_readout("CC(=O)O[C@H]1[C@H](C2CN(C)CCN(C)C2=O)[C@H](O)C[C@@H](C)[C@@H]2C=CC(=O)[C@]21C (some centres not stated)")
100
>>> numeric_readout("N[C@@H](Cc1ccc(N(CCCl)CCCl)cc1)C(=O)O")
168
>>> numeric_readout("C=C1C(=O)O[C@@H]2C[C@@H](C)[C@@H]3C=CC(=O)[C@@]3(C)[C@@H](OC(C)=O)[C@H]12")
78
>>> numeric_readout("CC(=O)O[C@H]1[C@H](C2CN(C)CCN(C)C2=O)[C@H](OC(=O)/C=C/c2ccccc2)C[C@@H](C)[C@@H]2C=CC(=O)[C@]21C (some centres not stated)")
102
>>> numeric_readout("C[C@@H]1C[C@H]2OC(=O)C(CN(C)C)[C@H]2[C@H](O)[C@]2(C)C(=O)C=C[C@@H]12 (some centres not stated)")
130
>>> numeric_readout("O=c1[nH]cc(F)c(=O)[nH]1")
186
>>> numeric_readout("C[C@@H]1C[C@@H](O)[C@@H]([C@H]2CN(C)CCN(C)C2=O)[C@H](O)[C@]2(C)C(=O)C=C[C@@H]12")
126
